Target: insulin receptor β-subunit associated tyrosine kinase activity (Homo sapiens, UniProt P06213)
Sequence (P06213 28-758 limits assumed): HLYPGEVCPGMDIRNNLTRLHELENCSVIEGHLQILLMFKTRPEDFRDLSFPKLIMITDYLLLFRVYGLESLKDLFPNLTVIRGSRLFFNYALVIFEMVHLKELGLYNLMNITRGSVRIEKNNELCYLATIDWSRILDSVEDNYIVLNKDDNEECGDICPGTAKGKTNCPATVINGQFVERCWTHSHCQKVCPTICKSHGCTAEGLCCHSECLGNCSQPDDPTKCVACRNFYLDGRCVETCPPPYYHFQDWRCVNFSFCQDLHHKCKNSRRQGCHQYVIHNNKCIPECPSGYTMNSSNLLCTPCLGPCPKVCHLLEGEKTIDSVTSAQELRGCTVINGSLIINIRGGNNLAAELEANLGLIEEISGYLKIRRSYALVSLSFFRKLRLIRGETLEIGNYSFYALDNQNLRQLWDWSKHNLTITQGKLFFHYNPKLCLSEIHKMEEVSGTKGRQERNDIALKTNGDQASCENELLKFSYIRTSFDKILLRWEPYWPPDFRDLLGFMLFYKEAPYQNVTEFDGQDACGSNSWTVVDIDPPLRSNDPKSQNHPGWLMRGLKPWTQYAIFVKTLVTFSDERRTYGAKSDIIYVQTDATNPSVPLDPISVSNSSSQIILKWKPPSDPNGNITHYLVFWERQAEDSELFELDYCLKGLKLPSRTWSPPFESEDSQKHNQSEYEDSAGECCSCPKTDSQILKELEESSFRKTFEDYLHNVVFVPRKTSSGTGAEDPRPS
Assay: Protein tyrosine kinase (PTK) assay, 32P incorporation into FYF peptide
Format: biochemical
Conditions: read-out: estimated IC50, 32P incorporation into FYF peptide
value.type: IC50 (µM)
Field: numeric (µM). Do not append units.

compound	units.label	IC50
CCCc1c(OCCCOc2cc(O)c(-c3ccc(F)cc3)cc2CC)ccc2c1OC(C(=O)O)CC2 (centres unmarked)	µM	250

Next, consider the following compound.
**Q:** Write down IC50 measured for item O=C(O)c1cc2ccccc2c(Cc2c(O)c(C(=O)O)cc3ccccc23)c1O
**A:** 150

* * *

Target: insulin receptor β-subunit associated tyrosine kinase activity (Homo sapiens)
Assay: Protein tyrosine kinase (PTK) assay, 32P incorporation into FYF peptide
Format: biochemical
value.type: IC50 (µM)
Field: numeric (µM). Do not append units.

**Q:** Write down IC50 measured for item CCCN(CCC)c1c([N+](=O)[O-])cc(S(=O)(=O)NS(=O)(=O)C(F)(F)F)cc1[N+](=O)[O-] [IM 145]
**A:** 90

* * *

Target: insulin receptor (Homo sapiens)
Sequence (P06213 28-758 limits assumed): as above
Test: 125I insulin binding to human placental plasma membranes (HPPM)
Parameters: Human Placental Plasma Membranes—50 mM Hepes, pH 7.8 @ 4 C containing 100 U/mL Bacitracin; from tissue; host or cells: human placenta, plasma membranes
Conditions: human placental plasma membranes, 16 h at 4° C.
pKi: −log10 of the molar value.
value.type: pKi

molecule	value.type	measurement
CCCc1c(OCCCOc2ccc(C(C)=O)c(OC)c2CCC)ccc2c1OC(C(=O)O)CC2 (stereo not drawn) [IM 129]	pKi	3.26 to 3.49
CCCc1c(COc2ccc3c(=O)cc(C(=O)O)oc3c2CCC)ccc(C(C)=O)c1O [IM 127]	pKi	3.49 to 3.85

**Q:** Under insulin receptor (Homo sapiens), report pKi for Cc1ccc(C(=O)Nc2ccc(S(=O)(=O)O)c3cc(S(=O)(=O)O)cc(S(=O)(=O)O)c23)cc1NC(=O)c1cccc(NC(=O)Nc2cccc(C(=O)Nc3cc(C(=O)Nc4ccc(S(=O)(=O)O)c5cc(S(=O)(=O)O)cc(S(=O)(=O)O)c45)ccc3C)c2)c1 [IM 175]
**A:** 4.32 to 4.34
